assay: Drug repurposing screens with cells derived from glioblastoma tumor samples (AID 1345199); details: GBM patient neurospheres viability, ATP luminescence, 48 h; at 46.1 µM (top of the series); tumour line C; note: % is set by controls: 0 for no effect and ±100 for the full control effect; nearly all actives have a fitted effect of over 40% in size
Inconclusive results are not listed.
measured parameter: activity, negative = cell killing (%)
Write the number in % without appending the unit.

Worked set:
smiles_record=O=C(O)[C@H](O)c1ccccc1 unit_abbreviation=% test_value=1.65
smiles_record=Nc1ccc(S(=O)(=O)Nc2nccs2)cc1 unit_abbreviation=% test_value=-7.84

activity, negative = cell killing reading for CCCCc1ncc(/C=C(\Cc2cccs2)C(=O)O)n1Cc1ccc(C(=O)O)cc1 : -1.88

---

test: qHTS to identify inhibitors of the type 1 interferon - major histocompatibility complex class I in skeletal muscle: primary screen against the NCATS LOPAC collection (AID 1347405); details: iHSKM muscle cells, IFN-b-induced MHC-I HiBiT luminescence, 24 h; series mostly up to 45.9 µM;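 note: human myoblasts with HiBiT tag on endogenous HLA-B stimulated by IFN-beta; lytic HiBiT luminescence reporting HLA-B protein level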
Records with an inconclusive call do not appear. The source made the active and inactive calls. Calls come from the whole dose curve; as a rule, active = well fitted inhibition curve with a large enough effect; inconclusive = small, poorly fitted or top-dose-only effect; inactive = flat fitted curve, though single readings scatter.
Parameter call: string, one of Y = active, N = inactive

Would you please look over these solved cases?
compound=C#CCN(C)Cc1ccccc1 qualitative_label=N
compound=C[C@]12CC[C@@H]3c4ccc(O)cc4CC[C@H]3[C@@H]1CCC2=O qualitative_label=N
compound=CC(C)NC[C@H](O)c1ccc(O)c(O)c1 qualitative_label=N
compound=CCN(CC)CCNC(=O)c1c(C)[nH]c(/C=C2\C(=O)Nc3ccc(F)cc32)c1C qualitative_label=Y
compound=C[C@]12C[C@H](O)[C@H]3[C@@H](CCC4=CC(=O)CC[C@@]43C)[C@@H]1CC[C@@H]2C(=O)CO qualitative_label=N

For CC(C)(C(=O)O)c1ccc(C(O)CCCN2CCC(C(O)(c3ccccc3)c3ccccc3)CC2)cc1 (configuration not stated) , what call appears in the results of this test?
N

For CC(=O)OCC(=O)[C@@]1(O)CC[C@H]2[C@@H]3CCC4=CC(=O)CC[C@]4(C)[C@H]3C(=O)C[C@@]21C , what call appears in the results of this test?
N

For CN(C)CCC=C1c2ccccc2CCc2ccccc21 , what call appears in the results of this test?
N

For Nc1ncnc2c1ncn2[C@@H]1O[C@H](CO)[C@@H](O)[C@H]1O , what call appears in the results of this test?
N

For COc1ccc(Cl)cc1C(=O)NCCc1ccc(S(=O)(=O)NC(=O)NC2CCCCC2)cc1 , what call appears in the results of this test?
N

For CCN(CC)CCNC(=O)c1cc(Cl)c(N)cc1OC , what call appears in the results of this test?
N

For CCN(CC)C(C)CN1c2ccccc2Sc2ccccc21 (configuration not stated) , what call appears in the results of this test?
N

---

tested on: DIV30; experiment: qHTS profiling for inhibitors of Plasmodium falciparum proliferation (AID 504749); note: nearly all actives have a fitted effect of over 60% in size; conditions: P. falciparum in erythrocytes, SYBR Green DNA, 72 h; series mostly up to 28.7 µM
Inconclusive results are not listed. Calls of active or inactive are those of the source. Calls come from the whole dose curve; as a rule, active = well fitted inhibition curve with a large enough effect; inconclusive = small, poorly fitted or top-dose-only effect; inactive = flat fitted curve, though single readings scatter.
Parameter call: string, one of 1 (yes) = active, 0 (no) = inactive

compound=Cc1ccc2nc(N)[nH]c(=O)c2c1Sc1ccncc1 qualitative_label="0 (no)"
compound="Cc1cc(C(C#N)c2ccc(Cl)cc2)c(Cl)cc1NC(=O)c1cc(I)cc(I)c1O (configuration not stated)" qualitative_label="0 (no)"
compound=NS(=O)(=O)c1cc2c(cc1Cl)NC(CSCc1ccccc1)=NS2(=O)=O qualitative_label="0 (no)"

For CCN(CC)CCNC(=O)c1cc(Cl)c(N)cc1OC , what call appears in the results of this test?
0 (no)

For CCC(=O)c1ccc(O)cc1 , what call appears in the results of this test?
0 (no)

For CC(C)(C)C(=O)C(Oc1ccc(Cl)cc1)n1ccnc1 (configuration not stated) , what call appears in the results of this test?
1 (yes)

For COc1ccc(Cl)cc1C(=O)NCCc1ccc(S(=O)(=O)NC(=O)NC2CCCCC2)cc1 , what call appears in the results of this test?
0 (no)

---

system: DIV17; assay: qHTS profiling for inhibitors of Plasmodium falciparum proliferation (AID 504749); note: nearly all actives have a fitted effect of over 60% in size; settings: P. falciparum in erythrocytes, SYBR Green DNA, 72 h; series mostly up to 28.7 µM
Inconclusive results are not listed. Active and inactive are the calls of the source. The call rests on the fitted dose curve; in most records, active means well fitted inhibition curve with a large enough effect; inconclusive means small, poorly fitted or top-dose-only effect; inactive means flat fitted curve, though single readings scatter.
Parameter call: string, one of active, inactive

compound=O=c1cc[nH]c(=O)[nH]1 target=DIV17 qualitative_label=inactive
compound=CCOC(=O)c1ccc(O)cc1 target=DIV17 qualitative_label=inactive
compound=Nc1ccc(S(=O)(=O)Nc2ccc(Cl)nn2)cc1 target=DIV17 qualitative_label=inactive
compound=CCCCOC(=O)c1ccc(O)cc1 target=DIV17 qualitative_label=inactive
compound=CCCCN(CCCC)CCCOC(=O)c1ccc(N)cc1 target=DIV17 qualitative_label=inactive

For CCC(=O)Nc1ccc(O)cc1 , what call appears in the results of this test?
inactive

For CCN(CC)CCSC(=O)C(c1ccccc1)c1ccccc1 , what call appears in the results of this test?
inactive

For C#CCN(C)Cc1ccccc1 , what call appears in the results of this test?
inactive

For Cc1ccc(C(C)C)cc2c(C)ccc1-2 , what call appears in the results of this test?
inactive

For O=C(O)CN1C(=O)c2cccc3cccc(c23)C1=O , what call appears in the results of this test?
inactive

For c1ccc(CN(CC2=NCCN2)c2ccccc2)cc1 , what call appears in the results of this test?
active

For CNCCC(Oc1ccc(C(F)(F)F)cc1)c1ccccc1 (stereo not given) , what call appears in the results of this test?
active

---

system: W2; test: qHTS profiling for inhibitors of Plasmodium falciparum proliferation (AID 504749); note: nearly all actives have a fitted effect of over 60% in size; conditions: P. falciparum in erythrocytes, SYBR Green DNA, 72 h; series mostly up to 28.7 µM
Inconclusive results are not listed. The source made the active and inactive calls. The call rests on the fitted dose curve; in most records, active means well fitted inhibition curve with a large enough effect; inconclusive means small, poorly fitted or top-dose-only effect; inactive means flat fitted curve, though single readings scatter.
Parameter call: string, one of T = active, F = inactive

Would you please look over these solved cases?
compound="O=C(O)CC(O)C(=O)O (stereo unspecified)" qualitative_label=F
compound=CC[C@@]1(c2ccccc2)NC(=O)N(C)C1=O qualitative_label=F

Okay, next one:
For c1ccc(CN(CC2=NCCN2)c2ccccc2)cc1 , what call appears in the results of this test?
T

---

experiment: qHTS assay for small molecule activators of the p53 signaling pathway (AID 651743); settings: HCT-116 p53RE-bla, beta-lactamase FRET ratio, 16 h; stronger effect = higher value; note: % of control where 0% means no effect
Records with an inconclusive call do not appear.
The following molecules are shown together with reported activation values.
Write the number in % without appending the unit.

smiles_record=CCCc1c(OCCCCc2nn[nH]n2)ccc(C(C)=O)c1O measured_parameter=activation test_value=16.1
smiles_record=CNC(=O)Oc1ccc2c(c1)[C@]1(C)CCN(C)[C@@H]1N2C measured_parameter=activation test_value=-2.62

activation reading for CN(C)CCCN1c2ccccc2CCc2ccccc21 : -6.39

---

assay: qHTS Assay for Identifying Gametocytocidal Compounds (AID 743244);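 note: % is set by controls: 0 for no effect and ±100 for the full control effect; actives lower the fluorescent signal which means gametocytes are killed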; details: P. falciparum 3D7 stage III-V gametocytes, alamarBlue, 72 h; stronger effect = lower value
Results filed as inconclusive are left out.
The following compounds are shown together with reported max response values.
Write the number in % without appending the unit.

Worked set:
compound=CCn1cc(C(=O)O)c(=O)c2cnc(N3CCNCC3)nc21 test_value=12.2
compound=O=C(Oc1ccccc1C(=O)O)c1ccccc1O test_value=-1.86

max response reading for CC(=O)CCC(=O)O : 13.5

max response reading for [O-][n+]1cccc(CO)c1 : -4.23

max response reading for CN(N=O)C(=O)N[C@@H]1[C@@H](O)[C@H](O)[C@@H](CO)O[C@@H]1O : 5.26

---

Target: Glutaminase kidney isoform, mitochondrial (Homo sapiens) (UniProt O94925)
Sequence (O94925 whole entry, looked up, canonical isoform): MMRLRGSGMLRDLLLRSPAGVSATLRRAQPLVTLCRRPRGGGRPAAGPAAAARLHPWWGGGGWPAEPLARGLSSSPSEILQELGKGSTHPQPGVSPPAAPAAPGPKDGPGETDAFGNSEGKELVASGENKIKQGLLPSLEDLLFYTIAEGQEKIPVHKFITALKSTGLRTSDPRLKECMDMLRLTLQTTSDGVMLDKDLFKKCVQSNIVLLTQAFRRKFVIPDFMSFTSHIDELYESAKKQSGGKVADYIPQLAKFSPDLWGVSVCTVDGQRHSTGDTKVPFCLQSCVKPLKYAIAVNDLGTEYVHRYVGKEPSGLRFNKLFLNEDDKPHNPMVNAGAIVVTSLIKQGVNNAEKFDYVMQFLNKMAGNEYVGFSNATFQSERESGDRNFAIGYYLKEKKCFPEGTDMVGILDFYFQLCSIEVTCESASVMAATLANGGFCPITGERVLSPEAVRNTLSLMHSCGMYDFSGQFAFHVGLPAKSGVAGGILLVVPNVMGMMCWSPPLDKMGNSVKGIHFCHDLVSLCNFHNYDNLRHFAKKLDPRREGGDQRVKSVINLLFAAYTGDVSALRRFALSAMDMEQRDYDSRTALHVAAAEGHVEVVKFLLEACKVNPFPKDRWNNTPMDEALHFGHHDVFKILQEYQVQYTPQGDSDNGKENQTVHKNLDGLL
Test: qHTS for Inhibitors of Glutaminase (GLS): LOPAC Validation (AID 624146); note: nearly all actives have a fitted effect of over 60% in size; note: potency is the fitted concentration of half-maximal effect
Conditions: glutaminase enzyme activity inhibition; series mostly up to 46.1 µM
Text: Glutaminase (GLS) catalyzes the hydrolysis of glutamine into glutamate and ammonia. It plays a critical role in glutaminolysis, which is an important energy source for proliferating cells. […] The overall goal of this project is to identify small molecule inhibitors of GLS through quantitative high throughput screening (qHTS) of the MLSMR. […]
Records with an inconclusive call do not appear. Calls of active or inactive are those of the source. Calls come from the whole dose curve; as a rule, active = well fitted inhibition curve with a large enough effect; inconclusive = small, poorly fitted or top-dose-only effect; inactive = no such curve, though single readings can be large or run the other way.
measured parameter: Potency

molecule="CNCC(O)c1ccc(O)c(O)c1 (stereo not given)" target="Glutaminase kidney isoform, mitochondrial (Homo sapiens) (UniProt O94925)" test_value=inactive
molecule=CNC(=O)Oc1ccc2c(c1)[C@]1(C)CCN(C)[C@@H]1N2C target="Glutaminase kidney isoform, mitochondrial (Homo sapiens) (UniProt O94925)" test_value="10 µM (active)"
molecule=C[C@](N)(Cc1ccc(O)cc1)C(=O)O target="Glutaminase kidney isoform, mitochondrial (Homo sapiens) (UniProt O94925)" test_value=inactive
molecule="CN(C)CCOC(C)(c1ccccc1)c1ccccn1 (stereo not given)" target="Glutaminase kidney isoform, mitochondrial (Homo sapiens) (UniProt O94925)" test_value=inactive
molecule=CC(C)C(=O)c1c(C(C)C)nn2ccccc12 target="Glutaminase kidney isoform, mitochondrial (Homo sapiens) (UniProt O94925)" test_value=inactive
molecule=Nc1cc(=O)[nH]c(N)n1 target="Glutaminase kidney isoform, mitochondrial (Homo sapiens) (UniProt O94925)" test_value=inactive
molecule="CCN(CC)C(C)CN1c2ccccc2Sc2ccccc21 (stereo not given)" target="Glutaminase kidney isoform, mitochondrial (Homo sapiens) (UniProt O94925)" test_value="11.2 µM (active)"
molecule=C[C@]12CC[C@@H]3c4ccc(O)cc4CC[C@H]3[C@@H]1CCC2=O target="Glutaminase kidney isoform, mitochondrial (Homo sapiens) (UniProt O94925)" test_value=inactive

Potency reading for CC(C)(C)[C@]1(O)CCN2C[C@H]3c4ccccc4CCc4cccc(c43)[C@@H]2C1 : inactive

Potency reading for CCN(CC)CCOC(=O)C1(C2CCCCC2)CCCCC1 : inactive
